Assign plant injury at 125 g/ha to each entry below.
tested on: wheat (Triticum aestivum); assay: Test A postemergence, wheat; assay type: in vivo; conditions: Triticum aestivum, post-emergence, 240 h, 125 g ai/ha, 0 to 100 scale, 0 no effect, 100 complete control, read-out: Plant response rating, Wheat
Answer with the number, then the unit.

Fill blank: measured plant injury at 125 g/ha of the molecule C[C@@H](Nc1ncc(C(F)(F)F)c(N)n1)c1cc2c(F)cccc2s1 is ____.
20%

Fill blank: measured plant injury at 125 g/ha of the molecule C[C@@H](Nc1ncc(C(F)(F)F)c(N)n1)c1cc2c(F)cccc2o1 is ____.
0%

Fill blank: measured plant injury at 125 g/ha of the molecule C[C@@H](Nc1ncc(C(F)(F)F)c(N)n1)c1cc2cccc(F)c2s1 is ____.
0%

Fill blank: measured plant injury at 125 g/ha of the molecule C[C@@H](Nc1ncc(C(F)(F)F)c(N)n1)c1cc2cccc(F)c2o1 is ____.
0%

Fill blank: measured plant injury at 125 g/ha of the molecule C[C@@H](Nc1ncc(C(F)(F)F)c(N)n1)c1coc2ccccc12 is ____.
0%

* * *

Assign Pigweed plant response rating to each entry below.
test system: pigweed (Amaranthus retroflexus); assay: Test A preemergence, pigweed; assay type: in vivo; conditions: 500 g ai/ha, 0 to 100 scale, 0 is no effect, 100 is complete control
Quick one: just the number, no unit, thanks!

Fill blank: measured Pigweed plant response rating of the compound C[C@@H](Nc1ncc(C(F)(F)F)c(N)n1)c1csc2ccccc12 [Compound 41] is ____.
100

Fill blank: measured Pigweed plant response rating of the compound CC(Nc1nc(N)c(C(F)(F)F)c(C(F)(F)F)n1)C1Cc2ccccc2C1 (racemic) [Compound 69] is ____.
70

Fill blank: measured Pigweed plant response rating of the compound C[C@@H](Nc1nc(N)c(C(F)(F)F)c(C(F)(F)F)n1)c1cc2ccccc2o1 [Compound 65] is ____.
0

Fill blank: measured Pigweed plant response rating of the compound C[C@H](Nc1ncc(C(F)(F)F)c(N)n1)c1cc2c(F)cccc2o1 [Compound 74] is ____.
10

* * *

system: galium (catchweed bedstraw, Galium aparine); test: Test A postemergence, galium; type: in vivo; conditions: Galium, post-emergence, 240 h, 500 g ai/ha, 0 to 100 scale, read-out: Plant response rating, Galium
Assign pest or weed control at 500 g/ha to each entry below.
Write the number in % without appending the unit.

// map C[C@@H](Nc1ncc(C(F)(F)F)c(N)n1)C1Cc2ccccc2C1 [Compound 13] to recorded pest or weed control at 500 g/ha (system: galium (catchweed bedstraw, Galium aparine))
80

// map Cc1cc(C)cc(OC[C@@H](C)Nc2ncc(C(F)(F)F)c(N)n2)c1 [Compound 25] to recorded pest or weed control at 500 g/ha (system: galium (catchweed bedstraw, Galium aparine))
90

// map C[C@@H](Nc1ncc(C(F)(F)F)c(N)n1)c1cc2ccccc2s1 [Compound 4] to recorded pest or weed control at 500 g/ha (system: galium (catchweed bedstraw, Galium aparine))
80

// map C[C@@H](Nc1ncc(C(F)(F)F)c(N)n1)c1cc2ccc(F)cc2o1 [Compound 8] to recorded pest or weed control at 500 g/ha (system: galium (catchweed bedstraw, Galium aparine))
90
